# Test system: RIVA
# Measurement Protocol: growth inhibition by drug plus 177Lu-lilotomab satetraxetan (1 - RLU/untreated control) (fraction); higher = stronger inhibition
# Condition Context: 100 nM; time (day): 3; 177Lu-lilotomab satetraxetan 0.5 ug/ml
Record form. Attribute: growth inhibition by drug plus 177Lu-lilotomab satetraxetan. Fill in for each entry.
Give only the figure.

Form field: reported growth inhibition by drug plus 177Lu-lilotomab satetraxetan of Cc1ccc(NC(=O)c2ccc(CN3CC[C@H](N(C)C)C3)c(C(F)(F)F)c2)cc1Nc1nccc(-c2cncnc2)n1
0.392

Form field: reported growth inhibition by drug plus 177Lu-lilotomab satetraxetan of CC[C@H]1OC(=O)[C@H](C)[C@@H](O[C@H]2C[C@@](C)(OC)[C@@H](O)[C@H](C)O2)[C@H](C)[C@@H](O[C@@H]2O[C@H](C)C[C@H](N(C)C)[C@H]2O)[C@](C)(O)C[C@@H](C)CN(C)[C@H](C)[C@@H](O)[C@]1(C)O [Azithromycin (Zithromax)]
0.499

Form field: reported growth inhibition by drug plus 177Lu-lilotomab satetraxetan of COc1nc(-c2ccc3c(c2)OCO3)n(-c2ccc(NC(=O)CSc3ccccc3)cc2)n1
0.323

Form field: reported growth inhibition by drug plus 177Lu-lilotomab satetraxetan of C[C@H](NC(=O)Cc1cc(F)cc(F)c1)C(=O)N[C@@H]1C(=O)N(C)c2ccccc2-c2ccccc21
0.298

Form field: reported growth inhibition by drug plus 177Lu-lilotomab satetraxetan of C[C@]12CC[C@H](O)CC1=CC[C@@H]1[C@@H]2CC[C@]2(C)C(c3cccnc3)=CC[C@@H]12
0.305

Form field: reported growth inhibition by drug plus 177Lu-lilotomab satetraxetan of COc1cc2c(cc1O)CC[C@@H]1[C@@H]2CC[C@]2(C)[C@@H](O)CC[C@@H]12
0.308

Form field: reported growth inhibition by drug plus 177Lu-lilotomab satetraxetan of N#CC[C@H](C1CCCC1)n1cc(-c2ncnc3[nH]ccc23)cn1
0.269

Form field: reported growth inhibition by drug plus 177Lu-lilotomab satetraxetan of O=C(O)C1(C(=O)O)CCC1.[NH2-].[NH2-].[Pt+2]
0.528

Form field: reported growth inhibition by drug plus 177Lu-lilotomab satetraxetan of CCC(C)n1ncn(-c2ccc(N3CCN(c4ccc(OCC5COC(Cn6cncn6)(c6ccc(Cl)cc6Cl)O5)cc4)CC3)cc2)c1=O (stereo not given) [Itraconazole (Sporanox)]
0.407

Form field: reported growth inhibition by drug plus 177Lu-lilotomab satetraxetan of Fc1cc(-c2cccc3ncc(-c4cnn(C5CCNCC5)c4)nc23)cc(F)c1CN1CCOCC1
0.571

Form field: reported growth inhibition by drug plus 177Lu-lilotomab satetraxetan of O=c1oc2c(O)c(O)cc3c(=O)oc4c(O)c(O)cc1c4c23
0.323

Form field: reported growth inhibition by drug plus 177Lu-lilotomab satetraxetan of CCc1cc(Nc2nccc(-c3c(-c4ccc(OC)c(C(=O)Nc5c(F)cccc5F)c4)nc4ccccn34)n2)c(OC)cc1N1CCC(N2CCN(S(C)(=O)=O)CC2)CC1
0.381

Form field: reported growth inhibition by drug plus 177Lu-lilotomab satetraxetan of O=C(CCCCCCC(=O)Nc1cccnc1)NO [Pyroxamide]
0.454

Form field: reported growth inhibition by drug plus 177Lu-lilotomab satetraxetan of O=C(Nc1ccccc1-c1cn2c(CN3CCNCC3)csc2n1)c1cnc2ccccc2n1
0.418

Form field: reported growth inhibition by drug plus 177Lu-lilotomab satetraxetan of Cc1cc(O)c2c(c1)C(=O)c1cccc(O)c1C2=O
0.489
